Entry source: PubChem BioAssay (NCI)

Test system: OVCAR-4 ovarian
assayNotes: NCI tumour cell line growth inhibition, 48 h
Measured TGI of individual entries
propertyMeasured: TGI

[[record]]
compound = "CCOC(=O)c1c(SCc2ccccc2)nc2c3ccccc3ccn12"
result = "> 100 µM"

[[record]]
compound = "O=C(Nc1ccc(Cl)cc1)c1cc2c(cc1Cl)Sc1nccn1S2(=O)=O"
result = "> 100 µM"

[[record]]
compound = "CCc1cccc(C)c1NC(=O)CC(=O)NNC(N)=S"
result = "> 100 µM"

[[record]]
compound = "N#CC1=C(N)Oc2c(ccc3ccccc23)C1c1cccs1 (stereo not given)"
result = "18.7 µM"

[[record]]
compound = "C[C@]12CCC(=O)CC1CC[C@@H]1C2CC[C@@]2(C)C1CC[C@@H]2OC(=O)CC[Se][Se]CCC(=O)O[C@H]1CCC2[C@@H]3CCC4CC(=O)CC[C@]4(C)C3CC[C@@]21C (stereo not given in full)"
result = "15.6 µM"

[[record]]
compound = "CC1=NN(C(=O)c2ccc(Cl)cc2)C(=O)C1N=Nc1ccc(S(=O)(=O)Nc2ncccn2)cc1 (stereo not given)"
result = "> 100 µM"

[[record]]
compound = "O=C(OCCOC(=O)c1ccc2c(c1)C1(SCCS1)c1ccccc1-2)c1ccc2c(c1)C1(SCCS1)c1ccccc1-2"
result = "> 100 µM"

[[record]]
compound = "O=C1O/C(=C\\c2ccc(O)c(Br)c2)C(c2ccc(O)c(Cl)c2)=C1Br"
result = "25.8 µM"

[[record]]
compound = "[N-]=[N+]=Nc1c(N2CCOCC2)c(Cl)nc2ccccc12"
result = "> 100 µM"

[[record]]
compound = "Nc1ccc(I)cn1"
result = "> 100 µM"

